test: basal S. cerevisiae growth modulation, no modifier, primary screen, OD600, strain BY4716, 24 h, basal condition (AID 1173); details: OD600, 24 h, higher = more signal, called active from +8 up or from −8 down
Quantity name: z-score
Simply state the number, no unit and no words.

Any idea what its z-score is? The molecule is O=C1N[C@@H](Cc2ccccc2)C(=O)N2[C@@H]1C[C@@H](C(=O)O)[C@H]2c1ccc(O)cc1
-1.14

Any idea what its z-score is? The molecule is CN1C=C(C(=O)OCCS(C)(=O)=O)C(C(=O)OCCS(C)(=O)=O)=CC(c2ccc(CO)cc2)=CC1c1cccs1 (stereo not given)
-3.66

###

assay: small-molecule microarray binders of probe aShh, primary screen, biochemical, biotinylated probe, 635/667 nm fluorescence (AID 1114); conditions: higher = more signal;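 further: probe is biotin-labelled aShh protein from a stem cell growth factor screen; measures binding of labelled protein to compounds printed on the slide; score merges feature fluorescence at 667 nm with signal-to-noise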
Quantity name: composite z-score
Simply state the number, no unit and no words.

{"columns": ["Structure as smiles", "composite z-score"],
 "data": [
  ["CC(C)(C)OC(=O)CC[C@]12N=C(c3ccc(OCCCO)cc3)O[C@H]1c1ccccc1N(Cc1ccccc1)C2=O", -0.0969]
]}

Any idea what its composite z-score is? The compound is COCCOC(=O)N1C(=O)[C@@]2(c3cc(C#CCCO)ccc31)[C@H](c1ccccc1OCCO)N1[C@H](c3ccccc3)[C@H](c3ccccc3)OC(=O)[C@H]1[C@@H]2C(=O)N1CCCCCCC1
1.94

Any idea what its composite z-score is? The compound is Cc1ccc(S[C@]2(C(=O)NCc3ccccc3)CC(=O)N(Cc3cc(C(F)(F)F)cc(C(F)(F)F)c3)[C@@H]2c2ccc(CO)cc2I)cc1
-0.319

Any idea what its composite z-score is? The compound is Cc1ccc([C@H]2C(C(=O)O)=C[C@@H](C(C)(C)C)N2S(=O)(=O)c2ccc(C)cc2)cc1
0.348

Any idea what its composite z-score is? The compound is COc1ccc(NC(=O)O[C@H]2[C@@H]3OC(=O)[C@H](Cc4cccc(Br)c4)C/C=C/C[C@@H](Cc4cccc(Br)c4)C(=O)O[C@H]3[C@@H](OC)O[C@@H]2CO)cc1
0.235

Any idea what its composite z-score is? The compound is COCCOC(=O)N1C(=O)[C@@]2(c3cc(C#CCCO)ccc31)[C@H](C(N)=O)[C@H]1C(=O)O[C@H](c3ccccc3)[C@H](c3ccccc3)N1[C@@H]2c1ccc(OCCO)cc1
0.0253

###

target: Calmodulin-1 (Homo sapiens) (UniProt P0DP23); test: CALM1 binders on microarrays, EGTA buffer, profiling panel, biochemical, small-molecule microarray, Cy5-labelled CALM1 (AID 1111); details: Cy5-CALM1 binding fluorescence, higher = more signal;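 further: labelled calmodulin applied in Tris saline Tween buffer holding calcium plus EGTA and DTT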
Measured composite z-score accompanies every entry in the list below.
Simply state the number, no unit and no words.

Please review the entries below; each comes with its answer.
{"columns": ["Compound", "Recorded result"],
 "data": [
  ["CC(=O)n1cc(C(O)C2C=CC3C(=O)N(c4ccccc4)C(=O)C3N2Nc2ccc(C(C)C)cc2)c2ccccc21 (centres undefined)", 2.53],
  ["COc1ccc([Si](C)(C)[C@H]2[C@H](CCO)O[C@@]3(C(=O)N(Cc4ccccc4)c4ccc(N5C(=O)c6ccccc6Oc6ccccc65)cc43)[C@@H]2C)cc1", 0.425],
  ["CC(C)CNC(=O)[C@@]1(C)c2ccccc2C(=O)N(Cc2cc(C(F)(F)F)cc(C(F)(F)F)c2)[C@H]1c1ccc(CO)cc1", -0.438],
  ["CCCCC(=C=CC[C@H](O)c1ccc(OCCO)cc1)C[C@H](O)COCc1ccccc1", -0.567],
  ["CCCC=C(CCC)[C@@H](NC(=O)CCc1ccccc1)c1ccc(C(F)(F)F)cc1", 1.58]
]}

Fill in the recorded composite z-score for this compound, with Calmodulin-1 (Homo sapiens) (UniProt P0DP23) as test system: COc1ccc(CCNC(=O)[C@@]2(Cc3ccccc3I)c3ccccc3C(=O)N(Cc3ccccc3Cl)[C@H]2c2ccc(CO)cc2)cc1
0.331

Fill in the recorded composite z-score for this compound, with Calmodulin-1 (Homo sapiens) (UniProt P0DP23) as test system: Cc1cccc([C@H]2C[C@H]3C(Br)=C[C@@H]2C(=O)[C@]32CO2)c1
-0.206

Fill in the recorded composite z-score for this compound, with Calmodulin-1 (Homo sapiens) (UniProt P0DP23) as test system: CC(C)CNC(=O)[C@@H]1c2ccccc2C(=O)N(C2CCCCC2)[C@H]1c1ccc(CO)cc1
0.54

Fill in the recorded composite z-score for this compound, with Calmodulin-1 (Homo sapiens) (UniProt P0DP23) as test system: CN(C)C(=O)[C@@]1(Cc2ccccc2N=[N+]=[N-])N=C(c2ccc(OCCCO)cc2)O[C@H]1c1ccccc1
2.4

Fill in the recorded composite z-score for this compound, with Calmodulin-1 (Homo sapiens) (UniProt P0DP23) as test system: CC(C)C(=C=CC[C@@H](O)c1cccc(OCCO)c1)C[C@@H](O)COCc1ccccc1
0.275

Fill in the recorded composite z-score for this compound, with Calmodulin-1 (Homo sapiens) (UniProt P0DP23) as test system: C=CCNC(=O)[C@@H]1[C@H]2C(=O)O[C@H](c3ccccc3)[C@H](c3ccccc3)N2[C@H](c2ccc(OCCO)cc2)[C@@]12C(=O)N(C(=O)OCCOC)c1ccc(C#CCCO)cc12
0.88

Fill in the recorded composite z-score for this compound, with Calmodulin-1 (Homo sapiens) (UniProt P0DP23) as test system: COC(=O)[C@@]1(Cc2ccc(F)cc2)[C@H]2c3cc(C(=O)N(C)C)n(Cc4ccc(O)c(OC)c4)c3C[C@H]2CN1C(=O)c1ccccc1
1.17

Fill in the recorded composite z-score for this compound, with Calmodulin-1 (Homo sapiens) (UniProt P0DP23) as test system: C=C[C@@H](OC)[C@H](OC(=O)Nc1ccc(SC)cc1)c1ccc(OCCO)cc1
0.469

Fill in the recorded composite z-score for this compound, with Calmodulin-1 (Homo sapiens) (UniProt P0DP23) as test system: C=C(/C(=C/C[C@@H](OC(=O)c1ccncc1)c1cccc(OCCO)c1)c1cnc2ccccc2c1)C(C)C
0.0848

Fill in the recorded composite z-score for this compound, with Calmodulin-1 (Homo sapiens) (UniProt P0DP23) as test system: CC(C)CNC(=O)[C@@]1(c2ccc([N+](=O)[O-])cc2)CC(=O)N(C2CCCCC2)[C@@H]1c1ccc(CO)cc1
0.1

Fill in the recorded composite z-score for this compound, with Calmodulin-1 (Homo sapiens) (UniProt P0DP23) as test system: CCOC(=O)C1=CCN(S(=O)(=O)c2ccc(C)cc2)C1c1ccccc1 (centres undefined)
-0.263

Fill in the recorded composite z-score for this compound, with Calmodulin-1 (Homo sapiens) (UniProt P0DP23) as test system: C=CCNC(=O)[C@@H]1[C@H]2C(=O)O[C@H](c3ccccc3)[C@H](c3ccccc3)N2[C@H](c2ccc(O)cc2)[C@@]12C(=O)Nc1ccc(C#CCC(C(=O)OC)C(=O)OC)cc12
-0.0406

Fill in the recorded composite z-score for this compound, with Calmodulin-1 (Homo sapiens) (UniProt P0DP23) as test system: C=C[C@@H](C)[C@@H](OC(=O)Nc1ccc(SC)cc1)c1ccc(OCCO)cc1
1.24

Fill in the recorded composite z-score for this compound, with Calmodulin-1 (Homo sapiens) (UniProt P0DP23) as test system: CC(C)(C)OC(=O)CC[C@]12N=C(c3ccc(OCCCO)cc3)O[C@H]1c1ccccc1N(Cc1ccccc1)C2=O
0.42

Fill in the recorded composite z-score for this compound, with Calmodulin-1 (Homo sapiens) (UniProt P0DP23) as test system: O=C1C[C@@](C(=O)NCc2ccccc2)(c2ccc([N+](=O)[O-])cc2)[C@@H](c2ccc(CO)cc2I)N1CC12CC3CC(CC(C3)C1)C2
0.387

Fill in the recorded composite z-score for this compound, with Calmodulin-1 (Homo sapiens) (UniProt P0DP23) as test system: COCCOC(=O)N1C(=O)[C@@]2(c3cc(C#CCC(C(=O)OC)C(=O)OC)ccc31)[C@H](c1ccc(O)cc1)N1[C@H](c3ccccc3)[C@H](c3ccccc3)OC(=O)[C@H]1[C@@H]2C(=O)NC[C@H](O)c1ccccc1
1.91

###

experiment: small-molecule microarray binders of probe aShh, primary screen, biochemical, biotinylated probe, 635/667 nm fluorescence (AID 1114); conditions: higher = more signal;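 further: probe is biotin-labelled aShh protein from a stem cell growth factor screen; measures binding of labelled protein to compounds printed on the slide; score merges feature fluorescence at 667 nm with signal-to-noise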
Returns satisfied if the recorded composite z-score is greater than or equal to -0.02, and not satisfied otherwise.

{"columns": ["Compound", "Cat"],
 "data": [
  ["CN(C)CCCNC(=O)[C@@H]1c2ccccc2C(=O)N(C2CCCCC2)[C@H]1c1ccc(CO)cc1", "satisfied"],
  ["O=C1C[C@@](C(=O)NCC(F)(F)F)(c2ccc([N+](=O)[O-])cc2)[C@@H](c2ccc(CO)cc2)N1CC12CC3CC(CC(C3)C1)C2", "satisfied"],
  ["[N-]=[N+]=Nc1ccccc1C[C@]1(C(=O)NCc2ccccc2)COC(c2ccc(OCCCO)cc2)=N1", "not satisfied"],
  ["CC(C)[Si]1(C(C)C)OCc2cc(-c3ccc(-c4ccc(Cl)c(Cl)c4)o3)nc(CCc3ccccc3)c21", "not satisfied"],
  ["C=C(/C(=C/C[C@H](OC(=O)c1ccncc1)c1cccc(OCCO)c1)c1cnc2ccccc2c1)C(C)C", "satisfied"]
]}

Reported composite z-score reaches at least -0.02 for CC(C)CNC(=O)[C@@]1(c2ccc([N+](=O)[O-])cc2)CC(=O)N(C2CCCCC2)[C@@H]1c1ccc(CO)cc1 ?
not satisfied
